So I've got a bunch of molecules here, and I need their pIC50 values.
TARGET OR TEST SYSTEM: Recombinant human JAK1 (catalytic domain, amino acids 866-1154) (Homo sapiens)
Construct: catalytic domain, amino acids 866-1154
Sequence (P23458 866-1154): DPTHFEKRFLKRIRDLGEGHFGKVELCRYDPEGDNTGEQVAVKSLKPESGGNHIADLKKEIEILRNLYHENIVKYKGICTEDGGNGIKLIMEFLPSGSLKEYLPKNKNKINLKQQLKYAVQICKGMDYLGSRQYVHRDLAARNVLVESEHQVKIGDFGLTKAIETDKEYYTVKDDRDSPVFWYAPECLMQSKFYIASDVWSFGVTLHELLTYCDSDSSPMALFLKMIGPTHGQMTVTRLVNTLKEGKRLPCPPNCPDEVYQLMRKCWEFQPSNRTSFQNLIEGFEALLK
RUN DESCRIPTION: JAK1 inhibition assay
TEST SETTINGS: read-out: JAK1 potency IC50
Answers are plain numbers, as −log10 of the molar value.

# count of solved cases: 3
{"MOLECULE": "CN(c1cc(Nc2cc(N)ncn2)c2ncn(C)c2n1)C12CC(C1)C2", "pIC50": 6.53}
{"MOLECULE": "CN(c1cc(Nc2cc(N)ncn2)c2ncn(C)c2n1)C1CCOCC1(C)C (centres unmarked)", "pIC50": 7.57}
{"MOLECULE": "Cc1cc(C#N)ncc1Oc1cc(Nc2cc(NCCCO)ncn2)c2ncn(C)c2n1", "pIC50": 7.00}

Here are 8 molecules. What values of pIC50 were reported for them?
1. COCCCNC(=O)c1ccc(Nc2cc(Oc3cnc(C#N)cc3C)nc3c2ncn3C)nc1
2. CCNC(=O)c1ccc(Nc2cc(Oc3cnc(C#N)cc3C)nc3c2ncn3C)cn1
3. CCNC(c1ccc(Nc2cc(Oc3cnc(C#N)cc3C)nc3c2ncn3C)nc1)C(F)(F)F (centres unmarked)
4. COCC1CN(C(=O)c2ccc(Nc3cc(Oc4cnc(C#N)cc4C)nc4c3ncn4C)nn2)C1
5. Cc1cc(C#N)ncc1Nc1cc(Nc2ccc(C(=O)N(C)C)cn2)c2ncn(C)c2n1
6. Cc1cc(C#N)ncc1Oc1cc(Nc2ccc(N3CCOC[C@@H]3C)cn2)c2ncn(C)c2n1
7. Cc1cc(C#N)ncc1Oc1cc(Nc2ccc(C(=O)N3CC(O)C3)nn2)c2ncn(C)c2n1
8. COC(C)CCNc1cc(Nc2cc(Oc3cnc(C#N)cc3C)nc3c2ncn3C)ncn1 (centres unmarked)

Reply:
1: 7.20; 2: 6.47; 3: 7.70; 4: 6.69; 5: 7.29; 6: 7.52; 7: 6.97; 8: 7.07

###

TARGET OR TEST SYSTEM: Recombinant human JAK2 (catalytic domain, amino acids 808-1132) (Homo sapiens)
Construct: catalytic domain, amino acids 808-1132
Sequence (O60674 808-1132): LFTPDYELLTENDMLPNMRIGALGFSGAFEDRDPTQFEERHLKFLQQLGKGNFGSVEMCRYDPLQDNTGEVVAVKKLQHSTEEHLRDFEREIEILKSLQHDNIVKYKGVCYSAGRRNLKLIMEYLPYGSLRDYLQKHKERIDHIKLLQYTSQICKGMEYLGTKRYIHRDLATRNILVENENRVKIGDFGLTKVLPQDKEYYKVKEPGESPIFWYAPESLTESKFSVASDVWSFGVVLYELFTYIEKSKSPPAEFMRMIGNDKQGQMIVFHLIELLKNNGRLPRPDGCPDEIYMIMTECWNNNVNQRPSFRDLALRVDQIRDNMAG
RUN DESCRIPTION: JAK2 inhibition assay; further: 0.7 µM ATP
TEST SETTINGS: read-out: JAK2 potency IC50
Procedure: After 60 min at room temperature, reactions are stopped by adding 20 μL/well of detection mixture (1× detection buffer (Perkin Elmer, catalog number CR97-100) with 0.5 nM Europium-anti-phosphotyrosine (PT66) (Perkin Elmer, catalog number AD0068/AD0069) and 10 mM EDTA). […] Kinase activity is calculated by subtracting the ratio obtained in the presence of a positive control inhibitor (1 μM staurosporine) from the ratio obtained in the presence of vehicle. […]
Where a name gives a salt, the structure may show the parent alone.
I'd be grateful if you could share measured pIC50 for these entries.
Answers are plain numbers, as −log10 of the molar value.

{"COMPOUND": "Cc1cc(C#N)ncc1Oc1cc(Nc2ccc(CN(C)CCN(C)C)cn2)c2ncn(C)c2n1 [Compound 83, formate salt]", "QUANTITY KIND": "pIC50", "READOUT NUMBER": 7.57}
{"COMPOUND": "Cc1cc(C#N)ncc1Oc1cc(Nc2ccc(S(=O)(=O)C(F)F)cc2)c2ncn(C)c2n1 [Compound 68]", "QUANTITY KIND": "pIC50", "READOUT NUMBER": 6.76}
{"COMPOUND": "Cc1cc(C#N)ncc1Oc1cc(Nc2ccc(C(=O)N3CC(C(C)(C)O)C3)nn2)c2ncn(C)c2n1 [Compound 111]", "QUANTITY KIND": "pIC50", "READOUT NUMBER": 7.53}

Consider the record given below.
Query: Look at this compound and give its reported pIC50. Cc1cc(C#N)ncc1Oc1cc(Nc2cc(NCCC(C)(C)O)ncn2)c2ncn(C)c2n1 [Compound 33]
Reply: 7.64

###

Tested on: IFNα activation of STAT1 in PBMC
RUN DESCRIPTION: IFNα activation of STAT1 in PBMC
Type: cell-based
TEST SETTINGS: Homo sapiens, PBMC, read-out: IFNα signaling inhibitory potency IC50 (nM)
QUANTITY KIND: IC50 (nM)
Numbers only, in nM.

Query: Data request, read-out IC50, for Cc1cc(S(C)(=O)=O)cc(F)c1Oc1cc(Nc2cc(N)ncn2)c2ncn(C)c2n1 [Compound 2]
Reply: 87

###

TARGET OR TEST SYSTEM: Recombinant human TYK2 catalytic domain (amino acids 871-1187) (Homo sapiens)
Construct: catalytic domain (amino acids 871-1187)
Sequence (P29597 871-1187): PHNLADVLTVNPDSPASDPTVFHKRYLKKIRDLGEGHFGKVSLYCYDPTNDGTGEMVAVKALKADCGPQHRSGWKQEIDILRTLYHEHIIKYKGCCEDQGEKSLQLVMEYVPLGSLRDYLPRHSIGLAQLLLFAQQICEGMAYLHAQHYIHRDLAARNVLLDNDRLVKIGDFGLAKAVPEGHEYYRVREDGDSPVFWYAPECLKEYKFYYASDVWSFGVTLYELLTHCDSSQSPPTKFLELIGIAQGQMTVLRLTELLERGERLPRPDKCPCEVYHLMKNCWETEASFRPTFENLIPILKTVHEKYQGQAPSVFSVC
RUN DESCRIPTION: TYK2 radioactive assay polyGT substrate; further: 0.1 µM ATP
Format: biochemical
Provide the recorded IC50 for the entries that follow.
Give bare numbers, in nM.

{"COMPOUND": "Cc1cc(C#N)ncc1Oc1cc(Nc2ccc(C(=O)NCCN(C)C)cn2)c2ncn(C)c2n1 [Compound 99]", "TARGET OR TEST SYSTEM": "Recombinant human TYK2 catalytic domain (amino acids 871-1187) (Homo sapiens)", "READOUT NUMBER": 17.8}
{"COMPOUND": "Cc1cc(C#N)ncc1Oc1cc(Nc2ccc(C(=O)N3CCOC[C@H]3C(C)C)cn2)c2ncn(C)c2n1 [Compound 157]", "TARGET OR TEST SYSTEM": "Recombinant human TYK2 catalytic domain (amino acids 871-1187) (Homo sapiens)", "READOUT NUMBER": 0.97}
{"COMPOUND": "Cc1cc(C#N)ncc1Oc1cc(Nc2ccc(C(=O)N3CCOCC3C3CC3)cn2)c2ncn(C)c2n1 (stereo not shown) [Compound 159]", "TARGET OR TEST SYSTEM": "Recombinant human TYK2 catalytic domain (amino acids 871-1187) (Homo sapiens)", "READOUT NUMBER": 1.02}
{"COMPOUND": "Cc1cc(C#N)ncc1Oc1cc(Nc2ccc(N3CCC(N(C)C)C3)cn2)c2ncn(C)c2n1 (stereo not shown) [Compound 182]", "TARGET OR TEST SYSTEM": "Recombinant human TYK2 catalytic domain (amino acids 871-1187) (Homo sapiens)", "READOUT NUMBER": 17.2}
{"COMPOUND": "Cc1cc(C#N)ncc1Oc1cc(Nc2ccc(C(=O)N(C)CCO)cn2)c2ncn(C)c2n1 [Compound 136]", "TARGET OR TEST SYSTEM": "Recombinant human TYK2 catalytic domain (amino acids 871-1187) (Homo sapiens)", "READOUT NUMBER": 2.76}
{"COMPOUND": "COC(C)CCNc1cc(Nc2cc(Oc3cnc(C#N)cc3C)nc3c2ncn3C)ncn1 (stereo not shown) [Compound 37]", "TARGET OR TEST SYSTEM": "Recombinant human TYK2 catalytic domain (amino acids 871-1187) (Homo sapiens)", "READOUT NUMBER": 3.62}
{"COMPOUND": "Cc1cc(C#N)ncc1Oc1cc(Nc2cc(NCCCO)ncn2)c2ncn(C)c2n1 [Compound 34]", "TARGET OR TEST SYSTEM": "Recombinant human TYK2 catalytic domain (amino acids 871-1187) (Homo sapiens)", "READOUT NUMBER": 5.49}
{"COMPOUND": "Cc1cc(C#N)ncc1Oc1cc(Nc2ccc(S(C)(=O)=O)cc2)c2ncn(C)c2n1 [Compound 60]", "TARGET OR TEST SYSTEM": "Recombinant human TYK2 catalytic domain (amino acids 871-1187) (Homo sapiens)", "READOUT NUMBER": 9.72}

Parameters: items (list). Returns: IC50 for each item.
1. Cc1cc(C#N)ncc1Oc1cc(Nc2ccc(C(=O)N3CC(O)C3)nn2)c2ncn(C)c2n1 [Compound 115]
2. CN(c1cc(Nc2cc(N)ncn2)c2ncn(C)c2n1)C12CC(C1)C2 [Compound 18]

Reply:
8.88
30.5

###

Exercise: state measured log10 of IC50 for each of the compounds provided.
Tested on: IL-12 activation of STAT4 in NK-92 cells
RUN DESCRIPTION: IL-12 activation of STAT4 in NK-92 cells using AphaLISA SureFire technology
Type: cell-based
TEST SETTINGS: Homo sapiens, NK92; IL-12 activation of STAT4 in NK-92 cells, AlphaLISA SureFire; average IC50; read-out: IL12 pSTAT4 IC50
Where a name gives a salt, the structure may show the parent alone.
All values: base-10 log of IC50 in nM.

Sample records with log10 of IC50:
{"COMPOUND": "Cc1cc(C#N)ncc1Oc1cc(Nc2ccc(C(=O)N3CCN(C(C)C)CC3)cn2)c2ncn(C)c2n1", "READOUT NUMBER": 2.32}
{"COMPOUND": "Cc1cc(C#N)ncc1Oc1cc(Nc2ccc(C(=O)N3CC(CO)C3)cn2)c2ncn(C)c2n1", "READOUT NUMBER": 2.48}
{"COMPOUND": "Cc1cc(C#N)ncc1Oc1cc(Nc2ccc(C(=O)N3C[C@@H](C)O[C@H](C)C3)cn2)c2ncn(C)c2n1 (racemic)", "READOUT NUMBER": 2.54}
{"COMPOUND": "Cc1cc(C#N)ncc1Oc1cc(Nc2ccc(N3CC4CCC(C3)O4)nn2)c2ncn(C)c2n1", "READOUT NUMBER": 1.86}
{"COMPOUND": "COCC1CN(C(=O)c2ccc(Nc3cc(Oc4cnc(C#N)cc4C)nc4c3ncn4C)nc2)C1", "READOUT NUMBER": 2.03}

Hi there! I need log10 of IC50 for each item below, if you can.
1. CC(C)[C@@H](Nc1cc(Nc2cc(N)ncn2)c2ncn(C)c2n1)C(F)(F)F
2. Cc1cc(C#N)ncc1Oc1cc(Nc2ccc(N3CCCOCC3)nn2)c2ncn(C)c2n1
3. COC1CN(C(=O)c2ccc(Nc3cc(Oc4cnc(C#N)cc4C)nc4c3ncn4C)nc2)C1
4. Cc1cc(C#N)ncc1Oc1cc(Nc2ccc(CN3CCOCC3)cn2)c2ncn(C)c2n1 [Compound 82, formate salt]
5. Cc1cc(C#N)ncc1Oc1cc(Nc2ccc(C(=O)N3CC(C(C)(C)O)C3)cn2)c2ncn(C)c2n1
6. Cc1cc(C#N)nnc1Oc1cc(Nc2cc(N)ncn2)c2ncn(C)c2n1
7. Cc1cc(C#N)ncc1Oc1cc(Nc2ccc(OC3CCN(C)CC3)cn2)c2ncn(C)c2n1

Reply:
1: 1.28; 2: 1.94; 3: 1.80; 4: 2.29; 5: 2.48; 6: 2.44; 7: 2.70

Provide log10 of IC50 for all items below, preserving their order.
1. Cc1cc(C(F)(F)F)ncc1Oc1cc(Nc2cc(N)ncn2)c2ncn(C)c2n1
2. Cc1cc(C#N)ncc1Oc1cc(Nc2ccc(N3CC(CN(C)C)C3)nn2)c2ncn(C)c2n1
3. Cc1cc(C#N)ncc1Oc1cc(Nc2ccc(C(=O)N3CCO[C@H](C)C3)cn2)c2ncn(C)c2n1
4. Cc1cc(C#N)ncc1Oc1cc(Nc2ccc(C(=O)N3CC(N(C)C)C3)cn2)c2ncn(C)c2n1

Reply:
1. 2.05
2. 3.55
3. 2.38
4. 2.18
